system: RARg:RXRa (NR concentration 270 nM, RXRa partner concentration 90 nM); assay: PBM binding z-score (relative to random genomic background probes); higher = stronger binding; sequences stand for … in GC…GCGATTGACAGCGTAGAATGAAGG
Here, each record is paired with measured PBM binding z-score data.
Lab note: jot the number down without any unit.

CTCGATAGGTCGGTTGAGGTGAGTATACGGATAA: 0.724
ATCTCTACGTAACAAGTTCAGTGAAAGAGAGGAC: 0.999
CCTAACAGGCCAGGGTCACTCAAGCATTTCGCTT: 3.17
ATCGAACGGTCGTGAGGTGAGTATACAGAAAGGC: 0.948
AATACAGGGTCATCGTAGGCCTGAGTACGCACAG: 5.59
CAGCCTAGGTCCGGGCCAGTATAGGAGGAACGTT: -0.685
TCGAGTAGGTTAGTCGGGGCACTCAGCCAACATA: 0.0814
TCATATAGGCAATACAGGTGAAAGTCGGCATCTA: 0.188

// returns reported PBM binding z-score for input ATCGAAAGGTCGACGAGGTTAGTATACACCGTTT
4.27

// returns reported PBM binding z-score for input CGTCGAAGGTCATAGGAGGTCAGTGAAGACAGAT
6.92

// returns reported PBM binding z-score for input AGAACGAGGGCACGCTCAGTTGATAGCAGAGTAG
1.9

// returns reported PBM binding z-score for input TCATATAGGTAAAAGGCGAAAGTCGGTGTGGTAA
0.0161

// returns reported PBM binding z-score for input AGAATGAGGTTAAGATCACGGAAACAGAATACAT
2.33

* * *

Here, each record is paired with measured PBM binding z-score data.
test system: VDR homodimer (NR concentration 270 nM); assay: PBM binding z-score (relative to random genomic background probes); higher = stronger binding; sequences stand for … in GC…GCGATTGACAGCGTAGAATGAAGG
Lab note: jot the number down without any unit.

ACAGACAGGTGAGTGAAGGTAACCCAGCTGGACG: -0.164
ATCGAAAGGTCGAGGTGAGAATAGAGAAAGGGAA: -0.0619
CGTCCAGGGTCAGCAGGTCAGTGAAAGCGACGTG: 1.25
ACAGACAGGTGAGTGAGGGTAACTCAGCTGGACG: 0.0737
CAAATTAGGTCACCGGAAGGTCAAAGTCCGCATG: 3.8

// returns reported PBM binding z-score for input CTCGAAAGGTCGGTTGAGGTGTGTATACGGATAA
0.415

// returns reported PBM binding z-score for input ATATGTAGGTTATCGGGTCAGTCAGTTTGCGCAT
2.46

* * *

system: RARg:RXRa (NR concentration 270 nM, RXRa partner concentration 90 nM); assay: PBM binding z-score (relative to random genomic background probes); higher = stronger binding; sequences stand for … in GC…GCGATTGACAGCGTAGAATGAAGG
Here, each record is paired with measured PBM binding z-score data.

Before answering, review these 8 worked examples.
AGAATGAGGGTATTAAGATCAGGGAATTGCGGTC: 0.0247
GCTGCCAGGTCAGGTTGGTCAGCTAACGGGTACG: 2.55
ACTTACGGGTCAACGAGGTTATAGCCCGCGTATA: 5.54
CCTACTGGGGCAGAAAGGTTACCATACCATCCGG: 1.62
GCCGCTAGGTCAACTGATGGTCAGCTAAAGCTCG: 5.19
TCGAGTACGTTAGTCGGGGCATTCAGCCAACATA: -0.237
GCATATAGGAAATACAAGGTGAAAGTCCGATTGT: 0.263
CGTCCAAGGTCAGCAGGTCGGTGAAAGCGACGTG: 5.49

// returns reported PBM binding z-score for input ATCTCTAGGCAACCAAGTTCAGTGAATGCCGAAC
0.473

// returns reported PBM binding z-score for input TGAATGAGGTTAAAGATCAGGAAACGTGGCGTCG
2.53

// returns reported PBM binding z-score for input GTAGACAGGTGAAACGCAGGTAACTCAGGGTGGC
0.896

// returns reported PBM binding z-score for input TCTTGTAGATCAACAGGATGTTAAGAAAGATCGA
0.136

// returns reported PBM binding z-score for input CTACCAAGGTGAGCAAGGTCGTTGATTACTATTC
0.951

Data provenance is the supplement of paper PMC6555819.
